Molecular target: human CaSR (Homo sapiens)
Construct: expressed in transfected cells; host or cells: HEK 293 cells, transient transfection of a CMV-promoter expression vector
Sequence (P41180 20-1078): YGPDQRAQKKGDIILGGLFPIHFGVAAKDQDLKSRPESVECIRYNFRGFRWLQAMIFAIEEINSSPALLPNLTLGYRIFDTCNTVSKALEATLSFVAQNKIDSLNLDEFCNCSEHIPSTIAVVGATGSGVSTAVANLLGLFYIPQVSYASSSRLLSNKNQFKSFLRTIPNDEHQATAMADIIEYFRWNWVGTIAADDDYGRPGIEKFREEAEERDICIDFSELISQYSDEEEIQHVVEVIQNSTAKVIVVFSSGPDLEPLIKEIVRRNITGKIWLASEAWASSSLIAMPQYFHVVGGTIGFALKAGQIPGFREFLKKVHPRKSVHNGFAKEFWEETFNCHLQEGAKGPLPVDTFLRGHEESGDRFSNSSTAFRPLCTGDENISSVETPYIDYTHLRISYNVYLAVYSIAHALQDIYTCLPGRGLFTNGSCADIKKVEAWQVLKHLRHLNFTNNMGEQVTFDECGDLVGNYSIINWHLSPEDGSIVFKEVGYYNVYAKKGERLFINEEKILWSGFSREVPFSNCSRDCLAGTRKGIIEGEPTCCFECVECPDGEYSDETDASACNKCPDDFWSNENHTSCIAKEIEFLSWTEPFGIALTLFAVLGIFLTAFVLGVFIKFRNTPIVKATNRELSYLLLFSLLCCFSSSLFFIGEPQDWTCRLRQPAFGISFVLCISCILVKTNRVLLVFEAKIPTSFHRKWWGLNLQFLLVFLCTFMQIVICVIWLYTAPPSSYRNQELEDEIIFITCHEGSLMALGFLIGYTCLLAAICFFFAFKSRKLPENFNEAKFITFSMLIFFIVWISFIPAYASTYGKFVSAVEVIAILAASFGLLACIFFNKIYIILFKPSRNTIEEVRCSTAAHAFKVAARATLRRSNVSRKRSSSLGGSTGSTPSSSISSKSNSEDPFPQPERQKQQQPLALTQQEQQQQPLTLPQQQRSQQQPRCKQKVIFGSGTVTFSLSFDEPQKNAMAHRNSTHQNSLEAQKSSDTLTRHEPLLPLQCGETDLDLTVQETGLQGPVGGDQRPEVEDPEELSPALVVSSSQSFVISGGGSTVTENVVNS
Experiment: Calcium receptor (CaSR) activation activity: calcium imaging in HEK 293 cells expressing human CaSR
Format: cell-based
Details: concentration giving 50% of the maximal activity; single values n = 1, others n = 2 or 3
VALUE_TYPE: pEC50
Reminder that pEC50 means the negative base-10 logarithm of the concentration expressed in mol/L.

Would you please look over these solved cases?
{"SMILES": "CC(C)[C@H](NC(=O)CC[C@H](N)C(=O)O)C(=O)O[C@@H](C)C(=O)O", "pEC50": 7.24}
{"SMILES": "CC[C@H](NC(=O)CC[C@H](N)C(=O)O)C(=O)O[C@@H](C)C(=O)O", "pEC50": 6.99}
{"SMILES": "CC(C)[C@H](NC(=O)CC[C@H](N)C(=O)O)C(=O)OCC(=O)O", "pEC50": 6.85}

Then there is this molecule:
Per the records, this molecule ( C[C@H](OC(=O)[C@@H](NC(=O)CC[C@H](N)C(=O)O)C(C)(C)C)C(=O)O ) has pEC50 equal to 7.42

----------
Target: human CaSR (Homo sapiens)
Assay: Calcium receptor (CaSR) activation activity: calcium imaging in HEK 293 cells expressing human CaSR
Details: concentration giving 50% of the maximal activity; single values n = 1, others n = 2 or 3
compounds and their reported EC50

{"COMPOUND": "CC(C)[C@H](NC(=O)CC[C@H](N)C(=O)O)C(=O)NCC(=O)O [γ-Glu-Val-Gly]", "EC50": "23 to 55 nM"}
{"COMPOUND": "CC(C)(NC(=O)CC[C@H](N)C(=O)O)C(=O)NCC(=O)O [γ-Glu-Aib-Gly]", "EC50": "349 to 1170 nM"}
{"COMPOUND": "CC[C@H](NC(=O)CC[C@H](N)C(=O)O)C(=O)OCC(=O)O [γ-Glu-Abu-GlyA]", "EC50": "65 to 79 nM"}

Then there is this compound:
Considering CC(C)(S)[C@H](NC(=O)CC[C@H](N)C(=O)O)C(=O)NCC(=O)O [γ-Glu-Pen-Gly] , its EC50 with human CaSR (Homo sapiens) was recorded as 159 to 233 nM

Ref: patent US8420144B2
